Reported absorption maximum is given for each of the following compounds.
Assay: solvent given as SMILES
Conditions: in CC#N
The reply should contain only the number, in nm.

Worked set:
INSERT INTO measurements (molecule_smiles, quantity, unit_spec, result) VALUES
  ('Cn1c(-c2ccc(-c3nc(-c4ccccc4)c(-c4ccccc4)n3C)s2)nc(-c2ccccc2)c1-c1ccccc1', 'absorption maximum', 'nm', 391),
  ('COC(=O)CNC(=O)c1nc2c(N(C)C)nc(N(C)C)nc2n1Cc1ccccc1', 'absorption maximum', 'nm', 336),
  ('F[B-]1(F)n2c(-c3ccccc3)cc(-c3ccccn3)c2N=C2C(c3ccccn3)=CC(c3ccccc3)=[N+]21', 'absorption maximum', 'nm', 655),
  ('CCC1=C(C)c2cc3c(OC)cc(OC)cc3c(=O)n2C1=O', 'absorption maximum', 'nm', 433),
  ('COc1cccc(-c2nc3c([nH]2)C2=CC(=O)S[C@]2(C)[C@@]2(C)SC(=O)C=C32)c1OC', 'absorption maximum', 'nm', 397),
  ('COc1cc(/C=C/c2cc(OC)c(-c3nc(-c4ccccc4)c(-c4ccccc4)[nH]3)cc2OC)c(OC)cc1/C=C/c1cc(OC)c(-c2nc(-c3ccccc3)c(-c3ccccc3)[nH]2)cc1OC', 'absorption maximum', 'nm', 441),
  ('CN(C)c1ccc(/C=C/C(=O)O)cc1', 'absorption maximum', 'nm', 364),
  ('Cc1ccc(-n2c3ccccc3c3cc(C=C(C#N)C#N)ccc32)cc1', 'absorption maximum', 'nm', 402);

Turning to the following compound.
INPUT: Quick one: absorption maximum for `CCOC(=O)c1nn(-c2ccc(OC)cc2)nc1N1CCCC1` ?
OUTPUT: 336

----------
Assay: solvent given as SMILES
Conditions: in ClCCl
quantity: absorption maximum (nm)
The reply should contain only the number, in nm.

INSERT INTO assay_data (molecule_smiles, quantity, result) VALUES
  ('CCn1c2ccsc2c2c3nsnc3c3c4sccc4n(CC)c3c21', 'absorption maximum', 436);

INPUT: Quick one: absorption maximum for `CSc1cc(-c2cc3cc4c5c(c3oc2=O)CCCN5CCC4)oc(=O)c1C#N` ?
OUTPUT: 541

INPUT: Next record, please: `N#CC(C#N)=Cc1ccc(-c2cccc(-c3nc4ccccc4s3)c2O)o1`
OUTPUT: 428

INPUT: Next record, please: `CCN(CC)c1ccc2cc(C#N)c(=O)oc2c1`
OUTPUT: 428

INPUT: Next record, please: `c1cc2ccc3ccc(OP4(Oc5ccc6ccc7cccc8ccc5c6c78)=NP(Oc5ccc6ccc7cccc8ccc5c6c78)(Oc5ccc6ccc7cccc8ccc5c6c78)=NP(Oc5ccc6ccc7cccc8ccc5c6c78)(Oc5ccc6ccc7cccc8ccc5c6c78)=N4)c4ccc(c1)c2c34`
OUTPUT: 343

INPUT: Next record, please: `COc1cc(OC)cc(-c2ccc(-c3ccc(C#N)s3)s2)c1`
OUTPUT: 366

----------
Test: solvent given as SMILES
Settings: in CCOCC
Reported absorption maximum is given for each of the following molecules.
The reply should contain only the number, in nm.

INSERT INTO results (molecule, quantity, result) VALUES
  ('c1ccc(C2CCN3COc4c5ccccc5c5c6c7c(c2c3c46)C(c2ccccc2)CCN7CO5)cc1 (configuration not stated)', 'absorption maximum', 404);

INPUT: Quick one: absorption maximum for `CN(C)c1ccc(C(=O)Nc2cccc(Br)c2)cc1` ?
OUTPUT: 312

INPUT: Next record, please: `CN(C)c1ccc(C2=Cc3cccc[n+]3[B-](F)(F)O2)cc1`
OUTPUT: 413

INPUT: Next record, please: C[C@]12C(=O)NC(=O)N([C@H]3CC(O)[C@@H](CO)O3)[C@H]1[C@H]1Oc3cc4oc(=O)ccc4cc3[C@H]12 (some centres not stated)
OUTPUT: 325
